target: T1, full length human SIRPα v1 stably expressed on CHOK1 or 293F cells (human, UniProt P78324 31-504); experiment: FACS, CHOK1-hSIRPα v1 cells
T1 construct: whole, on cells; also called CHOK1-human SIRPα v1; CHOK1-hSIRPα v1
T1 sequence (P78324 31-504): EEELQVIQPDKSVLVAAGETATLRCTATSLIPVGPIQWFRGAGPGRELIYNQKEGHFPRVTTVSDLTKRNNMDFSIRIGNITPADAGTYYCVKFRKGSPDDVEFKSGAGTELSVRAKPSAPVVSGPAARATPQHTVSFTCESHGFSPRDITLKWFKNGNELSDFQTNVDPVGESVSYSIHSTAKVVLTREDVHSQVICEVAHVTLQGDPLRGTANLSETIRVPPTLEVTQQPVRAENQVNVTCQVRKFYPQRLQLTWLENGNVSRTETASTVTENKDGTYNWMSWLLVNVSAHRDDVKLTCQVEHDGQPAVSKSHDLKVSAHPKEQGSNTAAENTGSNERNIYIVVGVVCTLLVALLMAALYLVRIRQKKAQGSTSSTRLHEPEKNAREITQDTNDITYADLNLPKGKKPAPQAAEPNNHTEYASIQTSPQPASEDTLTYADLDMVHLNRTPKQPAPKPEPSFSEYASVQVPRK
observation.type: TOP MFI (MFI)
Field: numeric (MFI). Do not append units.

// field: TOP MFI; key: 073c (antibody, V domains shown, also called chimeric antibody 073c) VH: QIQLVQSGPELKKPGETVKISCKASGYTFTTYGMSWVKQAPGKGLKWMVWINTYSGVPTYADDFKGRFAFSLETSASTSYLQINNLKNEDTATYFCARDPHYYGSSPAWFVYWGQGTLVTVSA VL: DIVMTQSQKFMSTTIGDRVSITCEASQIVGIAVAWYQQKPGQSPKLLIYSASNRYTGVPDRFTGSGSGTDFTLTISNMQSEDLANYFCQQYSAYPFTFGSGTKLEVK ; value = 67800

// field: TOP MFI; key: hu1H9G4 (antibody, V domains shown) VH: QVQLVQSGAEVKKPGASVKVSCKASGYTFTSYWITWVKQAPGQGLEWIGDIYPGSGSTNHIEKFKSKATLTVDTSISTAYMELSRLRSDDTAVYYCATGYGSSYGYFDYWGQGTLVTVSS VL: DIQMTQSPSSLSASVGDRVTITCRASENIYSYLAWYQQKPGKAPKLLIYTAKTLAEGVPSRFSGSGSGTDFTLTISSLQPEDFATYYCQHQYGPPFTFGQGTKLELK ; value = 74600

// field: TOP MFI; key: 071c (antibody, V domains shown, also called chimeric antibody 071c) VH: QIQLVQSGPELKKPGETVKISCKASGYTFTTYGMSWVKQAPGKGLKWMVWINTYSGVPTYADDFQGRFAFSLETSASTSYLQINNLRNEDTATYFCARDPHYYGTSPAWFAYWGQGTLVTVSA VL: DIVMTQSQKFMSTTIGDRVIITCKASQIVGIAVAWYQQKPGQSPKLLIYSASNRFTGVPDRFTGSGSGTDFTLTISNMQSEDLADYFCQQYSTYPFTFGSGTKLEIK ; value = 76500

// field: TOP MFI; key: 015c (antibody, V domains shown, also called chimeric antibody 015c) VH: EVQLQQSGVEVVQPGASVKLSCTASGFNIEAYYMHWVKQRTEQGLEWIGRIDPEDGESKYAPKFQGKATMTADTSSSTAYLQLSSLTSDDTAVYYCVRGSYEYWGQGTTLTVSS VL: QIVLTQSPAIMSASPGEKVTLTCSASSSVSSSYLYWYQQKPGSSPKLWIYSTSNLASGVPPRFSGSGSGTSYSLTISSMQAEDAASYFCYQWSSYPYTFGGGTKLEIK ; value = 80000

// field: TOP MFI; key: 042c (antibody, V domains shown, also called chimeric antibody 042c) VH: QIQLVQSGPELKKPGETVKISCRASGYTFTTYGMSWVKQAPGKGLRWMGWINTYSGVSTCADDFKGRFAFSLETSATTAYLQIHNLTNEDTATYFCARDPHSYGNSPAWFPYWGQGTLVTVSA VL: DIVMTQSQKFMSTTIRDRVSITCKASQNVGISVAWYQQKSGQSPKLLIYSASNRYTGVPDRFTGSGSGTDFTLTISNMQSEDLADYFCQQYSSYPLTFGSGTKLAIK ; value = 73200

// field: TOP MFI; key: 059c (antibody, V domains shown, also called chimeric antibody 059c) VH: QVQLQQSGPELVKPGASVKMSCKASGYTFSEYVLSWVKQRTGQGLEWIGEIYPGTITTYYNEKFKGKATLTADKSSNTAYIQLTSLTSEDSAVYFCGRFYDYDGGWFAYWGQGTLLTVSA VL: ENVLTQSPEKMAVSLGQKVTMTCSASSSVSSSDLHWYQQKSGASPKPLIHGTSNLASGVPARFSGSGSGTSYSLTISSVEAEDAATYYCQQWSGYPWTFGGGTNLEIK ; value = 69800

// field: TOP MFI; key: 025c (antibody, V domains shown, also called chimeric antibody 025c; parental antibody of 025c) VH: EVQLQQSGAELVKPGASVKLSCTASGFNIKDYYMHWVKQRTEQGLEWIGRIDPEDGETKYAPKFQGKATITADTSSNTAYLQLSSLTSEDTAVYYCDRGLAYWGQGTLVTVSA VL: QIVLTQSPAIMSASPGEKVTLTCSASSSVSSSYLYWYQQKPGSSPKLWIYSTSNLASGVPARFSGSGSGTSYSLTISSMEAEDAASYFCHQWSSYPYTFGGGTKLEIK ; value = 77600
